substrate: CCCCCCCCCCC1=C(C)C(=O)C(OC)=C(OC)C1=O; experiment: purified protein; format: biochemical, Thiocapsa roseopersicina; conditions: 200 µM sulfide, 50 mM Tris-HCl pH 8.0, 25 °C, anaerobic
observed-property: Km (µM)
Note: unit µM is implicit; provide only the numeric part.

TrSqrF; SqrF WT (Thiocapsa roseopersicina; I333F) (protein) MHRITIVGSGFAGLTAVQSIRRTAPDAEITLVSNKAEFIYYPGLIWVPCGIRSGEDLRIDLRPFFKRMRVRHLAGEATGLSPDGRTLETTAGPVENDGLVIGSGGRFIKKLPGIEHAITPCEGIAAAEAIRDRVKAMDGGSIAMGFAGNPNEPSSMRGGPIFEFIFGMDSQLRKEGRRDRFRLHFFTPAERPGNRLGPKAVDGILAEMKRRGIETHLGHKLKSFSESKVTTEAGEFDADLILFMPGMTGNTWFDNTDLPRSPGGLLQADAHCRVPGYERVYVAGDSGSFPGPDWMPKQAHMADLQARAAVKNLLAELQGRAPSETFKVELVCFVDANDTGMLVARTEKNNWVLPSTRFFHWMKLGFEWWYLRPYR :: 13.98
TrSqrF; SqrF WT (Thiocapsa roseopersicina; F366A) (protein) MHRITIVGSGFAGLTAVQSIRRTAPDAEITLVSNKAEFIYYPGLIWVPCGIRSGEDLRIDLRPFFKRMRVRHLAGEATGLSPDGRTLETTAGPVENDGLVIGSGGRFIKKLPGIEHAITPCEGIAAAEAIRDRVKAMDGGSIAMGFAGNPNEPSSMRGGPIFEFIFGMDSQLRKEGRRDRFRLHFFTPAERPGNRLGPKAVDGILAEMKRRGIETHLGHKLKSFSESKVTTEAGEFDADLILFMPGMTGNTWFDNTDLPRSPGGLLQADAHCRVPGYERVYVAGDSGSFPGPDWMPKQAHMADLQARAAVKNLLAELQGRAPSETFKVELVCIVDANDTGMLVARTEKNNWVLPSTRFFHWMKLGAEWWYLRPYR :: 9.38
TrSqrF; SqrF WT (Thiocapsa roseopersicina; F366Y) (protein) MHRITIVGSGFAGLTAVQSIRRTAPDAEITLVSNKAEFIYYPGLIWVPCGIRSGEDLRIDLRPFFKRMRVRHLAGEATGLSPDGRTLETTAGPVENDGLVIGSGGRFIKKLPGIEHAITPCEGIAAAEAIRDRVKAMDGGSIAMGFAGNPNEPSSMRGGPIFEFIFGMDSQLRKEGRRDRFRLHFFTPAERPGNRLGPKAVDGILAEMKRRGIETHLGHKLKSFSESKVTTEAGEFDADLILFMPGMTGNTWFDNTDLPRSPGGLLQADAHCRVPGYERVYVAGDSGSFPGPDWMPKQAHMADLQARAAVKNLLAELQGRAPSETFKVELVCIVDANDTGMLVARTEKNNWVLPSTRFFHWMKLGYEWWYLRPYR :: 10.03

Moving on to the next protein.
Quickly give me recorded Km for SqrF CTD (Thiocapsa roseopersicina) (protein, C-terminal alpha-helix deletion, stop codons after Thr356; N-terminal StrepII tag, expressed in T. roseopersicina FOQRON) MHRITIVGSGFAGLTAVQSIRRTAPDAEITLVSNKAEFIYYPGLIWVPCGIRSGEDLRIDLRPFFKRMRVRHLAGEATGLSPDGRTLETTAGPVENDGLVIGSGGRFIKKLPGIEHAITPCEGIAAAEAIRDRVKAMDGGSIAMGFAGNPNEPSSMRGGPIFEFIFGMDSQLRKEGRRDRFRLHFFTPAERPGNRLGPKAVDGILAEMKRRGIETHLGHKLKSFSESKVTTEAGEFDADLILFMPGMTGNTWFDNTDLPRSPGGLLQADAHCRVPGYERVYVAGDSGSFPGPDWMPKQAHMADLQARAAVKNLLAELQGRAPSETFKVELVCIVDANDTGMLVARTEKNNWVLPST 18.99
